Test system: isolated rabbit blood vessels
Experiment: vasodilation test in vitro, isolated aortic ring specimens
Type: cell-based, New Zealand white rabbits
Conditions: isolated rabbit thoracic aortic rings, cumulative addition 0.05-25.6 nM; read-out: diastolic efficacy EC50
measured-parameter: EC50 (nM)
Hi! Could you send only the number? It should be in nM, unit omitted.

## Task Look at this compound and give its reported EC50. CCCCC[C@H](O)/C=C/[C@H]1[C@H](O)CC(=O)[C@@H]1CCCCCCC(=O)O [prostaglandin E1, Prostaglandin E1]
## Result 9.77
